The measured values listed here are drawn from ChEMBL document CHEMBL3507680.

- ASSAY_METHOD_TEXT: Human HepG2 cell viability assay in 384 well format
- Format: toxicity, cell-based
- Parameters: dose 125 nL, time 70.5 hour; concentration not given beside the values
- PROTOCOL_CONDITIONS: HepG2 cells, read-out: Inhibition
OBSERVABLE: cytotoxicity at 70.5 h

| COMPOUND | OBSERVABLE | TEST_RESULT |
| --- | --- | --- |
| COc1ccc(S(=O)(=O)NCCC(=O)NCc2ccoc2)cc1OC | cytotoxicity at 70.5 h | -11.3% |
| Cc1nc(C2CCCN2CC(=O)Nc2cc(C(C)(C)C)nn2C)no1 (stereo unspecified) | cytotoxicity at 70.5 h | -6.05% |
| CNC(=O)C(C)(C)NC(=O)c1cc(OCC2CCC2)cc(C(=O)OC)c1 | cytotoxicity at 70.5 h | -1.19% |
| CC(C)[C@H]1CN(C(=O)CC2CCC2)C[C@@H]1N(C)C | cytotoxicity at 70.5 h | 18.9% |
| COCCN1C[C@@H]2[C@@H](OC)CCN(S(=O)(=O)c3cccnc3)[C@@H]2C1 | cytotoxicity at 70.5 h | -12.3% |
| O=C1Nc2ccccc2CC12CCCN2Cc1ccc(F)cc1 (stereo unspecified) | cytotoxicity at 70.5 h | 9.33% |
| CC(=O)N1CC2(CCN(C(=O)c3ccoc3)C2)C1 | cytotoxicity at 70.5 h | -2.66% |
| CCCNC(=O)CN1CCC(C(=O)Nc2cnn(CC)c2)CC1 | cytotoxicity at 70.5 h | -10.8% |
| O=C(Cc1ccccc1)NC[C@H]1Cn2ccnc2CO1 | cytotoxicity at 70.5 h | 5.13% |
| Cc1nc2c(c(=O)n1C)CCN(C(=O)CCc1ccccn1)CC2 | cytotoxicity at 70.5 h | -5.46% |
| Cn1cnc(S(=O)(=O)N2CCSC3(CCCCC3)C2)c1 | cytotoxicity at 70.5 h | 4.34% |
